Recorded values, source patent US20090286829A1.

target-or-test-system: Alpha 2C (Homo sapiens)
Sequence (P18825 1-462): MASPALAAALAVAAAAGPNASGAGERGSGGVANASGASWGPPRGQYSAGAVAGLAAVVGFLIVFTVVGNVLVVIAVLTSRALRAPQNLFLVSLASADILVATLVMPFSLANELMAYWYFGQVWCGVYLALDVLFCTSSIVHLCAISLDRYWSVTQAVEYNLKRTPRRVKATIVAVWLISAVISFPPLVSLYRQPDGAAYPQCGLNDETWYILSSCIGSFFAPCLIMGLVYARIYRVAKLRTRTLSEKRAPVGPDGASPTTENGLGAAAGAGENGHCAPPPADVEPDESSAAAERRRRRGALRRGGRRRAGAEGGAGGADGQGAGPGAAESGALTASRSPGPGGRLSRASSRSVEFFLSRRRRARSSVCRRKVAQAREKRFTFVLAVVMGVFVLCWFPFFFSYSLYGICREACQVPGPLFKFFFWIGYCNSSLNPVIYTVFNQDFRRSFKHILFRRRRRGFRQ
protocol-summary: RSAT assay, alpha 2C receptor
pEC50: −log10 of the molar value.
value-type: pEC50

- Cc1[nH]cnc1C(C)c1cccc2cccnc12 (stereo not shown): 5.51

----------
target-or-test-system: Alpha 1A (Homo sapiens, UniProt P35348)
Sequence (P35348 whole entry): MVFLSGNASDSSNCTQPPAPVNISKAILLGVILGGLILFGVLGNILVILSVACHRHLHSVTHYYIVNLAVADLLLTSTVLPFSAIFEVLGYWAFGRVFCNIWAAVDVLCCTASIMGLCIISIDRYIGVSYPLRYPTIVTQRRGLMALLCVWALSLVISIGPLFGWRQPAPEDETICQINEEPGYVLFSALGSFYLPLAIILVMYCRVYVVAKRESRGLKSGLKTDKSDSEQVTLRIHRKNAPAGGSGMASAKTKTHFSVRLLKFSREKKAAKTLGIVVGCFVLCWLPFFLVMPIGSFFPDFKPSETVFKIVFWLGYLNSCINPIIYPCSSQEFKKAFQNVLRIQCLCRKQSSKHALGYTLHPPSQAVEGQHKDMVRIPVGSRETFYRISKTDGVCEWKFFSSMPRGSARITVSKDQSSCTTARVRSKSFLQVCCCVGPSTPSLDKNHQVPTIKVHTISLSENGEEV
protocol-summary: RSAT assay, alpha 1A receptor
pEC50: −log10 of the molar value.
value-type: pEC50

* Cc1[nH]cnc1Cc1cccc2cccnc12 | 5.76
